Provide the reported IC50 of each item.
System: MOLM14 cells
Assay: Proliferation assay, spheroid-like growth, MOLM14 (MLL-AF9 rearranged)
Type: cell-based, human
Settings: Homo sapiens, MOLM-14, 192 h, 8 days, confluence as measure of spheroid size, read-out: spheroid assay_OneTime MOLM14 IC50
Give bare numbers, in nM.

compound	units.label	IC50
CC(=O)N1CCN([C@H]2C[C@@H](C(C(C)C)N3CC4(CCN(c5ncnnc5Oc5ccc(F)cc5-c5cncc(C#N)c5C5CC5)C4)C3)C2)CC1 (stereo partly shown) [Compound 144]	nM	200
CC(=O)N1CC[C@@]12CCN([C@H]1C[C@@H]([C@@H](C(C)C)N3CC4(CCN(c5ncnnc5Oc5ccc(F)cc5-c5cncnc5C5CC5)C4)C3)C1)C2 (single isomer, unassigned) [Compound 59]	nM	24
CC(C)[C@H](C1CC2(CCN2CC2COC2)C1)N1CC2(CCN(c3ncnnc3Oc3ccc(F)cc3-c3cncnc3C3CC3)C2)C1 (single isomer, unassigned) [Compound 155]	nM	570
CC(C)[C@@H]([C@H]1C[C@@H](N2CCC3(CCO3)C2)C1)N1CC2(CCN(c3ncnnc3Oc3ccc(F)cc3-c3nnccc3C3CC3)C2)C1 (single isomer, unassigned) [Compound 268]	nM	6
CC(C)[C@H]([C@H]1C[C@@H](NC(=O)C(C)(C)C)C1)N1CC2(CCN(c3ncnnc3Oc3ccc(F)cc3-c3cncnc3C3CC3)C2)C1 (single isomer, unassigned) [Compound 300]	nM	170

# batch size: 3; output IC50 per entry
1. CC(C)[C@H]([C@H]1C[C@@H](N2CCC(F)C(O)C2)C1)N1CC2(CCN(c3ncnnc3Oc3ccc(F)cc3-c3cncnc3C3CC3)C2)C1 (single isomer, unassigned) [Compound 30]
2. CC(C)[C@@H]([C@H]1C[C@H](N(C)C)C1)N1CC2(CCN(c3ncnnc3Oc3ccc(F)cc3-c3cccnc3C3CC3)C2)C1 (single isomer, unassigned) [Compound 91]
3. CC(C)C([C@H]1C[C@H](N2CCC(C)(O)CC2)C1)N1CC2(CCN(c3ncnnc3Oc3ccc(F)cc3-c3cncnc3C3CC3)C2)C1 (stereo partly shown) [Compound 130]

1. 29
2. 26
3. 120

Could you share which IC50 value was measured for CNC(=O)c1cnc(N[C@H]2C[C@@H]([C@@H](C(C)C)N3CC4(CCN(c5ncnnc5Oc5ccc(F)cc5-c5cnc(C)nc5C5CC5)C4)C3)C2)s1 (single isomer, unassigned) [Compound 417] ?
1.8

---

Tested on: KO-52 cells
Assay: Proliferation assay, spheroid-like growth, KO-52 (MLL wildtype control cell line)
Type: cell-based, human
Conditions: Homo sapiens, 192 h, KO-52 control cells, 8 days, confluence as measure of spheroid size; read-out: spheroid assay_OneTime KO-52 IC50
property.label: pIC50
Numbers only, as −log10 of the molar value.

compound	measurement.target	pIC50
CC(C)[C@H]([C@H]1C[C@@H](N2CCC(F)C(O)C2)C1)N1CC2(CCN(c3ncnnc3Oc3ccc(F)cc3-c3cncnc3C3CC3)C2)C1 (single isomer, unassigned)	KO-52 cells	5.59

Switching to the query record.
Dear colleague, I am looking for the recorded pIC50 of the following compound: CC(C)[C@@H]([C@H]1C[C@H](N2C[C@H]3COC[C@H]3C2)C1)N1CC2(CCN(c3ncnnc3Oc3ccc(F)cc3-c3nnccc3C3CC3)C2)C1 (single isomer, unassigned)
5.32

---

Please go through the items and note down their pIC50.
Test system: MOLM14 cells
Assay: Proliferation assay, spheroid-like growth, MOLM14 (MLL-AF9 rearranged)
Type: cell-based, human
Settings: Homo sapiens, MOLM-14, 192 h, 8 days, confluence as measure of spheroid size, read-out: spheroid assay_OneTime MOLM14 IC50
Answers are plain numbers, as −log10 of the molar value.

compound	pIC50
CC(C)[C@H]([C@H]1C[C@@H](NC(=O)C2(F)CC2)C1)N1CC2(CCN(c3ncnnc3Oc3ccc(F)cc3-c3nnccc3C3CC3)C2)C1 (single isomer, unassigned)	7.77
CC(C)[C@H]([C@H]1C[C@@H](N2C[C@H]3C[C@@H]2CO3)C1)N1CC2(CCN(c3ncnnc3Oc3ccc(F)cc3-c3ncccc3C3CC3)C2)C1 (single isomer, unassigned)	7.77
CC(C)[C@H]([C@H]1C[C@@H](N2CC[C@H](F)C2)C1)N1CC2(CCN(c3ncnnc3Oc3ccc(F)cc3-c3cncnc3C3CC3)C2)C1 (single isomer, unassigned)	8.70
CC(C)[C@H]([C@H]1C[C@@H](N2CCC[C@H](F)C2)C1)N1CC2(CCN(c3ncnnc3Oc3ccc(F)cc3-c3cncnc3C3CC3)C2)C1 (single isomer, unassigned)	7.80
CNC(=O)c1cnc(N[C@H]2C[C@@H](C(C(C)C)N3CC4(CCN(c5ncnnc5Oc5ccc(F)cc5-c5cncnc5C5CC5)C4)C3)C2)o1 (single isomer, unassigned)	8.00
CC(C)[C@@H]([C@H]1C[C@@H](N(C)C)C1)N1CC2(CCN(c3ncnnc3Oc3ccc(F)cc3-c3cccnc3C3CC3)C2)C1 (single isomer, unassigned)	8.70

Batch request: pIC50 per item, same order as input.
1. CC(C)[C@H]([C@H]1C[C@@H](N2CCC(O)C(F)C2)C1)N1CC2(CCN(c3ncnnc3Oc3ccc(F)cc3-c3cncnc3C3CC3)C2)C1 (single isomer, unassigned)
2. COCCN(C)[C@H]1C[C@@H]([C@@H](C(C)C)N2CC3(CCN(c4ncnnc4Oc4ccc(F)cc4-c4cncnc4C4CC4)C3)C2)C1 (single isomer, unassigned)

1: 7.77; 2: 8.22

---

Biological target: menin/MLL (terbium chelate-labeled menin, FITC-MBM1 peptide) (Homo sapiens, UniProt O00255, T541A)
Construct: Menin (a.a 1-610-6xhis tag)
Sequence (O00255 with tags, fused parts or gaps T541A): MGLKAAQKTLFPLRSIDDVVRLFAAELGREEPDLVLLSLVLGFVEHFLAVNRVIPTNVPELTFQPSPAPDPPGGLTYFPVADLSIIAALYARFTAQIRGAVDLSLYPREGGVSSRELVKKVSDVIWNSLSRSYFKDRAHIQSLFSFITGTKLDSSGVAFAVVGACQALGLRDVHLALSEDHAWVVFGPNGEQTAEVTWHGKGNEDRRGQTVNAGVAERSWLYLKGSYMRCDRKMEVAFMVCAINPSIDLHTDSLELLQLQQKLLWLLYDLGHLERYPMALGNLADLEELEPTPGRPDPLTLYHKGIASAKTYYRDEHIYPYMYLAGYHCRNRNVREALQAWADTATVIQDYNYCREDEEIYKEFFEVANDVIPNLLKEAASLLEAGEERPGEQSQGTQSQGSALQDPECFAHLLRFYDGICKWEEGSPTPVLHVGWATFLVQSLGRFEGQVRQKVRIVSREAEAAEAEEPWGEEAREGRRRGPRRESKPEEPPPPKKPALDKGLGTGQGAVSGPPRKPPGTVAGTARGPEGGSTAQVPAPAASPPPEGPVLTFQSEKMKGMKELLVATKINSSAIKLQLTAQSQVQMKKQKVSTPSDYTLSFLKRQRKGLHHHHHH
Test: Menin/MLL homogenous time-resolved fluorescence (HTRF) assay
Conditions: 30 min incubation
property.label: IC50 (nM)
One number for each entry, in nM.

// worked examples, IC50 included
compound	recorded.result
CC(C)C([C@H]1C[C@@H](N2CC3(COC3)C2)C1)N1CC2(CCN(c3ncnnc3Oc3ccc(F)cc3-c3cncnc3C3CC3)C2)C1 (single isomer, unassigned)	0.1
CC(C)C([C@H]1C[C@@H](Nc2ncc(C(=O)O)o2)C1)N1CC2(CCN(c3ncnnc3Oc3ccc(F)cc3-c3cncnc3C3CC3)C2)C1 (single isomer, unassigned)	1.77

Turning now to a further record.
Any idea what its IC50 is? The compound is CO[C@H]1[C@@H]2CN([C@H]3C[C@H]([C@H](C(C)C)N4CC5(CCN(c6ncnnc6Oc6ccc(F)cc6-c6cnncc6C6CC6)C5)C4)C3)C[C@@H]21 (single isomer, unassigned) [Compound 282b]
0.5

---

Test system: MOLM14 cells
Assay: Proliferation assay, spheroid-like growth, MOLM14 (MLL-AF9 rearranged)
Format: cell-based, human
Conditions: Homo sapiens, MOLM-14, 192 h, 8 days, confluence as measure of spheroid size, read-out: spheroid assay_OneTime MOLM14 IC50
Task for the reader: assign each of the following compounds its reported IC50.
Give bare numbers, in nM.

compound	units.label	recorded.result
CC(C)[C@H]([C@H]1C[C@@H](N2CC(O)C3(CC3)C2)C1)N1CC2(CCN(c3ncnnc3Oc3ccc(F)cc3-c3cncnc3C3CC3)C2)C1 (mixture of isomers)	nM	4
CNC(=O)c1ncc(N[C@H]2C[C@@H]([C@@H](C(C)C)N3CC4(CCN(c5ncnnc5Oc5ccc(F)cc5-c5cncnc5C5CC5)C4)C3)C2)s1 (single isomer, unassigned)	nM	8.4

Now, please, on to the next compound.
Could you share what IC50 was measured for CC(C)[C@H]([C@H]1C[C@@H](N2CC[C@]3(CCN(C)C3=O)C2)C1)N1CC2(CCN(c3ncnnc3Oc3ccc(F)cc3-c3cncnc3C3CC3)C2)C1 (single isomer, unassigned) , tested on MOLM14 cells?
7

---

Answer each item with its documented pIC50.
Test system: MOLM14 cells
Test: Proliferation assay, spheroid-like growth, MOLM14 (MLL-AF9 rearranged)
Type: cell-based, human
Details: Homo sapiens, MOLM-14, 192 h, 8 days, confluence as measure of spheroid size, read-out: spheroid assay_OneTime MOLM14 IC50
Method: The anti-proliferative effect of menin/MLL protein/protein interaction inhibitor test compounds was assessed in human leukemia cell lines. […] In order to assess the anti-proliferative effects, 200 MOLM14 cells, or 300 KO-52 cells were seeded in 200 μl media per well in 96-well round bottom, ultra-low attachment plates (Costar, catalogue number 7007). […] Spheroid like growth was measured in real-time by live-cell imaging (IncuCyteZOOM, Essenbio, 4× objective) acquiring images at day 8. […]
Answers are plain numbers, as −log10 of the molar value.

Reference set, count: 4
molecule	measurement.target	pIC50
CC(C)[C@H]([C@H]1C[C@@H](Nc2cnnc(-c3ccn[nH]3)c2)C1)N1CC2(CCN(c3ncnnc3Oc3ccc(F)cc3-c3cncnc3C3CC3)C2)C1 (single isomer, unassigned)	MOLM14 cells	8.40
CC(C)[C@H]([C@H]1C[C@@H](N2CCC3(CN(C)C(=O)O3)C2)C1)N1CC2(CCN(c3ncnnc3Oc3ccc(F)cc3-c3cncnc3C3CC3)C2)C1 (single isomer, unassigned)	MOLM14 cells	7.49
CC(C)C([C@H]1C[C@@H](Nc2ncc(C(=O)O)o2)C1)N1CC2(CCN(c3ncnnc3Oc3ccc(F)cc3-c3cncnc3C3CC3)C2)C1 (single isomer, unassigned)	MOLM14 cells	6.28
CC(C)C([C@H]1C[C@@H](N2C[C@H]3COC[C@H]3C2)C1)N1CC2(CCN(c3ncnnc3Oc3ccc(F)cc3-c3cnccc3C3CC3)C2)C1 (some centres unmarked)	MOLM14 cells	8.70

Request the reported pIC50 associated with CC(C)[C@@H]([C@H]1C[C@@H](N2C[C@H]3COC[C@H]3C2)C1)N1CC2(CCN(c3ncnnc3Oc3ccc(F)cc3-c3ncncc3C3CC3)C2)C1 (single isomer, unassigned)
8.52

Origin of measurements: patent US20240417405A1
